B1: RTN1 (parent)
chain: VVAYLALAALSATISFRIYKSVLQ

variants of: B1; assay: protein stability index of a GFP-peptide fusion (GPS, HEK-293T) (PSI 1-6); higher = more stable; settings: c terminus: a fixed tail appended;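 also: lentivirally expressed fusions sorted by FACS into six bins by GFP to DsRed ratio, PSI derived from sequencing read proportions per bin multiplied by bin number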
Can you tell me protein stability index for the items I'm about to list?
Form field (numeric): enter value without unit.

*Q* Consider the variant VVAYLALAALSATASFRIYKSVLQ [I14A] and give its measured protein stability index.
*A* 2.8

*Q* Endpoint output: protein stability index of VVAYLALAALCATISFRIYKSVLQ [S11C] . Value?
*A* 1.28

*Q* Given the variant VVAYLALAGLSATISFRIYKSVLQ [A9G] , what is its reported protein stability index?
*A* 1.53

*Q* Look up protein stability index for this variant: VVAYLALAALSATISFIIYKSVLQ [R17I]
*A* 2.21

*Q* Query: protein stability index; subject: VVAYLALAAMSATISFRIYKSVLQ [L10M]
*A* 3.33

*Q* Consider the variant NVAYLALAALSATISFRIYKSVLQ [V1N] and give its measured protein stability index.
*A* 2.64

*Q* Fill in: protein stability index of VVAYLAEAALSATISFRIYKSVLQ [L7E] is ___
*A* 2.39

*Q* Would you kindly share the measured protein stability index for VVAYLKLAALSATISFRIYKSVLQ [A6K] ?
*A* 2.74

*Q* Please give the measured protein stability index for this variant: VVAYLALAALSATISFYIYKSVLQ [R17Y]
*A* 3.59

*Q* Consider the variant shown here: DVAYLALAALSATISFRIYKSVLQ [V1D] What is its recorded protein stability index?
*A* 2.2

*Q* Any idea what its protein stability index is? The variant is VVAYLALAALSATISFRIFKSVLQ [Y19F]
*A* 1.46

*Q* Bench note: what protein stability index did VVAYLALAALSHTISFRIYKSVLQ [A12H] show?
*A* 3.12

*Q* Sample VVAYLALAVLSATISFRIYKSVLQ [A9V] — what was its protein stability index?
*A* 2.94

*Q* Please report the recorded protein stability index for VVAYLALAWLSATISFRIYKSVLQ [A9W] .
*A* 1.94

*Q* Fill blank: measured protein stability index of the variant VVAYLALAALSETISFRIYKSVLQ [A12E] is ____.
*A* 2.05

*Q* Which measured protein stability index value corresponds to VVAYLALAALSATISFMIYKSVLQ [R17M] ?
*A* 2.83

*Q* What does the data say about its protein stability index? Entry: VVAYLALAALSATISFRIYKSVLS [Q24S]
*A* 2.03

*Q* Fill in the blank: the reported protein stability index of VVAYLALAILSATISFRIYKSVLQ [A9I] is ____.
*A* 2.31

*Q* Request the reported protein stability index associated with VVAYLALDALSATISFRIYKSVLQ [A8D]
*A* 2.28
